Cited source for all entries: the supplement of paper PMC12645437

Molecular target: T1, CRBN, Q96SW2;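 also: pooled lentiviral library of zinc finger degron-EGFP fusions in mCherry-positive Jurkat cells, FACS-sorted after compound exposure, with degron abundance counted by next-generation sequencing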
T1 chain: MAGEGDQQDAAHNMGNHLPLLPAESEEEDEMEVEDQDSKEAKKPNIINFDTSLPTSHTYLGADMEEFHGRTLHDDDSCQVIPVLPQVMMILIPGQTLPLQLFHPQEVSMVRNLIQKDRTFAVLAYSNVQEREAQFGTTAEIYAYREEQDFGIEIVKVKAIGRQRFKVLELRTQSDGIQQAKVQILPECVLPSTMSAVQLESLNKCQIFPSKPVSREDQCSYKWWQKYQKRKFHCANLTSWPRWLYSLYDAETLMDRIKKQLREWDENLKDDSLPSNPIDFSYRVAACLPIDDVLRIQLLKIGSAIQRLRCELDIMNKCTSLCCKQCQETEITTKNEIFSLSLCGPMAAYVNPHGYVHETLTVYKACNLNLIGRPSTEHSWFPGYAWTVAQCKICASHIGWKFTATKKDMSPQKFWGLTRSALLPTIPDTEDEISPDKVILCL
Experiment: log2 fold change of degron read counts, EGFP-low vs EGFP+ sorted cells (limma voom), compound-induced degradation; higher = more compound-induced degradation of the degron-EGFP fusion; degrons are variants of IKZF1/3 zinc finger 2; compound dose not given here
Conditions: Jurkat; 18 h; compound: compound 33 (diphenyl IMiD analogue)
In all, about 8,300 sequences were measured (“log2 fold change of degron read counts, EGFP-low vs EGFP+ sorted cells (limma voom), compound-induced degradation”: median about -1.1, highest 2% from about 3.2 on). Shown is part of a subset that was picked to be rich in the highest values.
testReadout: log2 fold change of degron read counts
Write no unit; give the number alone.

Here's what some known entries look like.
sequenceCode: FACEICGAAFTQKGNLLRHIKL [46F_47A_49E_50I_52G_53A_54A_55F_67L_, Q9UKT9]
testReadout: log2 fold change of degron read counts
reading: 1.11
//
sequenceCode: FGCEICGAAFTQKGNLLRHIKL [46F_47G_49E_50I_52G_53A_54A_55F_67L_, Q9UKT9]
testReadout: log2 fold change of degron read counts
reading: 2.15
//
sequenceCode: FWCEICGAAFTQKGNLLRHIKL [46F_47W_49E_50I_52G_53A_54A_55F_67L_, Q9UKT9]
testReadout: log2 fold change of degron read counts
reading: 2.67

Please turn your attention to the following entry.
Looking for the measured log2 fold change of degron read counts of FDCEICGAAFTQKGNLLRHIKL [46F_47D_49E_50I_52G_53A_54A_55F_67L_, Q9UKT9] , can you help?
0.792
